Data origin: the supplement of paper PMC10567573

// protein stability index lookup, one value per entry
B1: TRIM39 (parent)
chain: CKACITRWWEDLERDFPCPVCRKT

Variants of: B1
Test: protein stability index of a GFP-peptide fusion (GPS, HEK-293T) (PSI 1-6); higher = more stable;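 note: lentivirally expressed fusions sorted by FACS into six bins by GFP to DsRed ratio, PSI derived from sequencing read proportions per bin multiplied by bin number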
Details: c terminus: a fixed tail appended
Give the figure only, with no unit attached.

Worked set:
sequence_variant=T6V property_measured="protein stability index" recorded_measurement=2.71
sequence_variant=R7K property_measured="protein stability index" recorded_measurement=3.73

(Q) Look at this variant and give its reported protein stability index. A3Y
(A) 3.9

(Q) And what about the variant K23D ?
(A) 4.34

(Q) Again, but for R14H
(A) 4.23

(Q) How about this variant: D11Q
(A) 3.48

(Q) And what about the variant D15R ?
(A) 2.46

(Q) Then this variant: L12K
(A) 4.19

(Q) Also C1L ?
(A) 2.31
